The values you see were collected from the supplement of paper PMC6555819.

# Tested on: RARb:RXRa (NR concentration 270 nM, RXRa partner concentration 90 nM)
# test_name: PBM binding z-score (relative to random genomic background probes); higher = stronger binding; sequences stand for … in GC…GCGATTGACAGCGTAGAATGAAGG
Given measured PBM binding z-score, output satisfied if it is greater than or equal to 2 and not satisfied if not.

Ask: # bool: PBM binding z-score of ATATGTAGGTTAGCGGGGGTCATTCAGACTAGGC >= 2
Result: satisfied

Ask: Is PBM binding z-score at least 2? Consider ACTCGGAGGGCAAAGGTCAGAGCTACGCCAGTGA
Result: satisfied

Ask: Does TCGAGTAGGTTTCGGGGGCATTCAGGGATGAAGA have a reported PBM binding z-score of at least 2?
Result: not satisfied

Ask: Reported PBM binding z-score reaches at least 2 for CCTACTGGGCCAAAGGCCATTGATTCCAATGCTC ?
Result: not satisfied

Ask: Does CCGAGTAGGTTTCGAGGGGGCATTCAGTGCGAAT have a reported PBM binding z-score of at least 2?
Result: not satisfied

Ask: Decide: PBM binding z-score of TCTTGTAGATCAAAGGTCAAGAAAGCCGAAGCCT >= 2?
Result: satisfied

====

# Test system: PPARa:RXRa (NR concentration 270 nM, RXRa partner concentration 90 nM)
# test_name: PBM binding z-score (relative to random genomic background probes); higher = stronger binding; sequences stand for … in GC…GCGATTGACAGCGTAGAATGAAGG
measurement_name: PBM binding z-score

Study these solved cases before continuing.
CGAACTAGGTGACCAGGACAGTGAAGAGGTTGGA = 2.67
GATACACGGTCAAGGCCAGAGTACGCGTATTGAT = -0.0579
CCGAGCAGGTTACGAGGGGGCATTCAGTGCGAAT = 3.01
CCGACTGGGGCAAAGGTTACGATACTCAGTACGA = 5.62
TCGAGTAGGTTACGGGGGCATTCGGGGATGAAGA = 4.28
CGAACTAGGTCACCAGGACCGTGAAGAGGTTGGA = 4.88
CGAACTAGGTCACCCGGACAGTGAAGAGGTTGGA = 4.76
TCGAGTAGGTTACGGGGGCATGCAGGGATGAAGA = 4.27
GCTGCTAGGTCAGGTTGGTCGGCTAACGGGTACG = 1.04
CCAACTAGGTCACCAGGACAGTGAAGAGGTTGGA = 4.66

Please state PBM binding z-score for every sequence in the list that follows.
1. CCTACTGGGCCACGTAAGGTCATTGATTCAGTGA
2. CCTGCTAGGTCAATGGTCAGCTCAAGCAGCTCGC

Result:
1: 3.47; 2: 3.19

====

Task for the reader: assign each of the following sequences its reported PBM binding z-score.
# Tested on: PPARg:RXRa (NR concentration 180 nM, RXRa partner concentration 90 nM)
# test_name: PBM binding z-score (relative to random genomic background probes); higher = stronger binding; sequences stand for … in GC…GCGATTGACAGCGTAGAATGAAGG

CTATGTAGGTTAAGGGGGTCATACAGTTTGAAAG = 8.81
CCCCGGAGGACAGAAGGTCAGAGCTGTCCGCTTT = -0.0611
CGTCCAAGGTCAACAGGTCAGTGAAAGCGACGTG = 5.65
ACTAACAGGCCAAGGGTCACTCAAGATTAGTCCG = 6.9
CGTCAAAGTTCAAGCTAACGTAACAGAAAGCAGC = 4.58

Dear colleague, could you send me PBM binding z-score for each of the items below? Thanks.
1. CGTCCAAGGTCACAGGAGGTCAGTGAAGACAGAT
2. TAGCCTAGGTCATTCAGGGGCCAGTATGGAAAGC
3. TCTAGTTGGTCAAAGGTCTCACACTCGAAATGCG
4. CAAACTAGGCCAAGGTCAAAGTCGGTTTGTGCCA
5. CCGAGTAGGTTACGAGGGGGCAGTCAGTGCGAAT

Result:
6.76
2.1
7.81
6.27
2.19

For each of the items listed, what is its PBM binding z-score?
1. CCTTACGGGTCACTCTAGGTTATAGCATCGGAGT
2. CCGACTAGGTTACGAGGGGGCATTCAGTGCGAAT
3. CTATGTAGGTTAAGGGGGTCATTCATTTTGAAAG
4. TCGAGCAGGTTACGGGGGCATTCAGGGATGAAGA

Result:
1: 3.33; 2: 2.68; 3: 8.6; 4: 4.31

Your task in this section: give PBM binding z-score for each listed record.
1. CCTTGCGGGTCACTGACAGGTTATAGCATTTGGA
2. ACCAGCAGGCCAAGGGTCACTCAAGATTAGTCCG
3. CAATCTAGGTCAAAGGTCAAAGTCGAGCCAACCA
4. GATACAGGGTCAGCTTGAGGCCAGAGTATGGAAA
5. ATACGTAGGTTAGGGTCATTCAGAAAGTAGGGAA
6. CGAACTCGGTCAAAGGACAGTGAAAGGCGACGTA
7. CTCGAAAGGTCGGTTGAGGTGACTATACGGATAA
8. CCTACTGGGCGATTCAGAGGTCATTGATCATATG

Result:
5.18
6.25
14
2.71
2.96
5.06
0.621
0.564

# map each sequence to its PBM binding z-score
1. CCCAGTAGGTTACGAGGGGGCATTCAGTGCGAAT
2. CACACTAGGTCAAAGGTCAAAGTCGAGCCAACCA
3. ACTCGGAGGACAAAGGTGAGAGCTACGCCAGTGA
4. CGTCCAAGGTCATGGGAGGTCAGTGAAGACAGAT
5. CGTACTAGGTCAAAGGACAGTGAAAGGCGACGTA

Result:
3.75
13.9
4.53
6.25
9.74

Batch request: PBM binding z-score for each of the following sequences.
1. TCGAGTAGGTTACGAGGGCATTCAGGGATGAAGA
2. TCGGGTAGGTTACGGGGGCATTCAGGGATGAAGA
3. ATATGTAGGTTAGGGTCATGCAGAAAGTAGGGAA
4. ATATGTAGGTTAGCGTCATTCAGAAAGTAGGGAA
5. CAAACTAGGTCAAGAGGTCAAACTCCGCTTCCCG
6. CGATCTAGGTCAAAGGACAGTGAAAGGCGACGTA
7. AGAATGAGGTTACCAGAGATCAGGGAAACGCTTG

Result:
[3.58, 5.73, 7.7, 4.14, 10.1, 10.3, 2.77]

Can you give me PBM binding z-score for all of these, one by one?
1. CGTCCAAGGTCATACGAGGTCAGTGAAGACAGAT
2. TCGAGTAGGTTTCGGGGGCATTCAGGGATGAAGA

Result:
5.57
1.4

Below is a list of sequences. For each, state its recorded PBM binding z-score.
1. TCTAGGAGGACACGAAGGTCAGAGCTTTCCAGAG
2. CTATGTAGGTTAAGGGGGTCATTCGGTTTGAAAG
3. CCGAGTTGGTTACGAGGGGGCATTCAGTGCGAAT
4. AGAGTGAGGTTACCAAAGATCAGGGAAACGCTTG

Result:
1: 0.882; 2: 8.47; 3: -0.0841; 4: 1.54

Provide each entry's PBM binding z-score from the list below.
1. CCTTACGGGTCACTCCATGTTATAGCATCGGAGT
2. CGTCCAAGGTCAAAGGTCAGTAAAGAGATGACGG
3. GCTTACGGGTCAAAGGTTAAAGCATGAATAGAAT
4. ATATGTAGGTTAGGGTGATTCAGAAAGTAGGGAA

Result:
3.24
10.8
11.8
5.4
